target.of.assay: Gal6S(b1-4)GlcNAc6S
protocol.description: glycan array binding signal (z-score within array); higher = stronger binding
study.conditions: glycan notation: IUPAC condensed, linker removed
The sample as a whole holds a higher share of the strongest signals than the screen did.
Criterion: glycan array binding signal (z-score) meeting or surpassing 9. Met: label 1. Not met: label 0.

Assess whether reported glycan array binding signal (z-score) for Epa22 (Candida glabrata) (protein) MGSSHHHHHHSSGLVPRGSHMKRALSSQNPFGYPIGCSPQSTNVIPGLTMELYSYPIVSGTPPNCYDASYVDPEYPRTGYLKRKMIGKSTGVTGSLNYKFSVEKACMVKYGNLPAGYNYNEPLTVSNFTMLLYGYFKPQTSGIHTFFVNADDLLYINFGAGNAFDCCKREDSKFKLGEYVAYDIWHVDSSKNKVSLNLEKDVYYPIRMFFNNIGKDSSLDLSFSVNGAVEHITDFSGYLYSVPDQPDACPAPIGYDTTCK sits at 9 or higher.
label 0

Does the reported glycan array binding signal (z-score) for Spy 2007 (Streptococcus pyogenes), Q99XV3 (protein) MKKGFFLMAMVVSLVMIAGCDKSANPKQPTQGMSVVTSFYPMYAMTKEVSGDLNDVRMIQSGAGIHSFEPSVNDVAAIYDADLFVYHSHTLEAWARDLDPNLKKSKVDVFEASKPLTLDRVKGLEDMEVTQGIDPATLYDPHTWTDPVLAGEEAVNIAKELGRLDPKHKDSYTKNAKAFKKEAEQLTEEYTQKFKKVRSKTFVTQHTAFSYLAKRFGLKQLGISGISPEQEPSPRQLKEIQDFVKEYNVKTIFAEDNVNPKIAHAIAKSTGAKVKTLSPLEAAPSGNKTYLENLRANLEVLYQQLK fall at or above the 9 mark?
label 0

Assess whether reported glycan array binding signal (z-score) for Epa12 (Candida glabrata) (protein) MGSSHHHHHHSSGLVPRGSHMLEPDNSLQIFDSFLSNPSKYPLGCSPKITNPKKGLSMELYSYPYRKKGSHPCWDPAYLDPNFPRVGYKKNKLIARVDGVSGDINFNFHPKRQCTPIADYLPPNFNYNEPITTTNFTMLLYGYFKPKVTGLHTFDISADDLLFMNFGAGNAFDCCRRDSTADTFGNYVAWAIWGRRIVRNKLTVRLDKGIYYPLRLFFNNRDYYGQMRLTFKTEHGSERITDFSDYFFSVDDTSEGCPGLITYESECADVKSSTVLETDYITIQAEKE sits at 9 or higher.
label 0

Would you say Epa20 (Candida glabrata) (protein) MGSSHHHHHHSSGLVPRGSHMASSNIPNNYPLGCSNKYSGHLPGLKMELYSYNYVNPRHPDPQNPGKLDQLYDPNLLGTYECFDSSYKDINYPRVGYKSKTLIGRSDGVSGILNFNFVPPWGCMPQKGQLPPAYNFKSNITLSNFTMILFGYFKPKISGNHIFSLHGDDLIYLNFGAGNAFDCCRQESSADNFGNYQAFSLWGINWEKKTLTVYLDMNTYYPIRIFYNNRDYQAIFNFSFKTEFDSSPVIDFQDYFFFLRDIDGGCPGEV shows glycan array binding signal (z-score) at minimum 9?
label 0

Answer whether glycan array binding signal (z-score) of Epa15 (Candida glabrata) (protein) MGSSHHHHHHSSGLVPRGSHMASDPTTFPLGCSPEFTKTKKGLSMELYRYDYLPPGSYPCWDSAYLNPSYPRTGYKAKKLIATVDGVSGDINFKFNPKFGCKAIPDYLPSNFNYHEPITITNFTMILYGYFMPKTTAFHTFYVTADDLLFMNFGAGNAFDCCRREETADKFGNYAAYSVWGKKSLKNELTVYLHTGVYYPIRLFYNNRDYIAQLDIRFKTEHSNAIITNFTDYFYSVDDSSLGCPGLI is greater than or equal to 9.
label 1

Hey, just so you know, these numbers are from the supplement of paper PMC8728848.
